- PROCEDURE_SUMMARY: Intrinsic thermodynamic stability by DSC
- Format: physicochemical
- SETTINGS: same buffer
ENDPOINT_NAME: Tm3 (° C.) (°C)

MOLECULE	MEASURED_VALUE
Hu2B5.2: humanized 2B5-8.0; VH SEQ ID NO 62, VL SEQ ID NO 63 (antibody, V domains shown) VH: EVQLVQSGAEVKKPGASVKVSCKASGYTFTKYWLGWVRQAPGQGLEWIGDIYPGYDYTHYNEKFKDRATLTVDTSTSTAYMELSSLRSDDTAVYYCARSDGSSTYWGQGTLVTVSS VL: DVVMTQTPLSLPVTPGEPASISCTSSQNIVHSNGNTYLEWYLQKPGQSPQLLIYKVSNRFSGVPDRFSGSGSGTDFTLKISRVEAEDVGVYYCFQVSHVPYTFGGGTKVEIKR	82.67
